The values you see were collected from ChEMBL document CHEMBL1158615.

Measured IC50, listed per entry.
Target: Dipeptidyl peptidase 4 (Homo sapiens, UniProt P27487)
Sequence (P27487 whole entry): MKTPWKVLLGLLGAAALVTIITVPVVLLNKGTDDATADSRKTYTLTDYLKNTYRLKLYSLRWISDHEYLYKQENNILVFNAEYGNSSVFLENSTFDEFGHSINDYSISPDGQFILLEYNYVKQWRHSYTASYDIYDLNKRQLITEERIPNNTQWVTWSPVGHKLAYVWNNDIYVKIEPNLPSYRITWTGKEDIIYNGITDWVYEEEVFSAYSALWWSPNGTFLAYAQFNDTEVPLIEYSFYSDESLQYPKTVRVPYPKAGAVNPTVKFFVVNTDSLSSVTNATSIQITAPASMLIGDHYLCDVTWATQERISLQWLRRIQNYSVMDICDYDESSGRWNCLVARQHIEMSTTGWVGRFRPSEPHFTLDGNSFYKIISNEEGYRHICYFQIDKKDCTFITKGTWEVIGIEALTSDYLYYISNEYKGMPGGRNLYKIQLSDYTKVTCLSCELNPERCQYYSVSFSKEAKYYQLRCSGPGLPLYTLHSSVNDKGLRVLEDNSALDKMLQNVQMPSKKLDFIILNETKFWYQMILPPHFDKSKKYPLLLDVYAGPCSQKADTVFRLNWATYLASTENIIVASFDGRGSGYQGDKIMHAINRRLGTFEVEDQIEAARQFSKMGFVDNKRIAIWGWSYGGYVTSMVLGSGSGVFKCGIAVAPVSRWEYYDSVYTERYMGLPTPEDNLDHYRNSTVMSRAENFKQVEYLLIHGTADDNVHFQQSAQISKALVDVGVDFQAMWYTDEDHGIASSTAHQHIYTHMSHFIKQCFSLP
Please state the figure in nM; there is no need to write the unit.

Some compounds with known IC50 results, for comparison:
CC(C)NC(=O)O[C@H]1C[C@H]2C[C@@H](NCC(=O)N3CCC[C@H]3C#N)C[C@H]2C1 : 204
CC(C)(C)NC(=O)O[C@H]1C[C@H]2C[C@@H](NCC(=O)N3CCC[C@H]3C#N)C[C@H]2C1 : 326

Now for the compound whose IC50 we want.
I looked up N#C[C@@H]1CCCN1C(=O)CN[C@@H]1C[C@@H]2C[C@H](OC(=O)Nc3ccccc3)C[C@@H]2C1 and its IC50 for Dipeptidyl peptidase 4 (Homo sapiens, UniProt P27487) was 121
